- targetOrTestSystem: Adenosine receptor A2a (Homo sapiens) (UniProt P29274)
- Sequence (P29274 whole entry): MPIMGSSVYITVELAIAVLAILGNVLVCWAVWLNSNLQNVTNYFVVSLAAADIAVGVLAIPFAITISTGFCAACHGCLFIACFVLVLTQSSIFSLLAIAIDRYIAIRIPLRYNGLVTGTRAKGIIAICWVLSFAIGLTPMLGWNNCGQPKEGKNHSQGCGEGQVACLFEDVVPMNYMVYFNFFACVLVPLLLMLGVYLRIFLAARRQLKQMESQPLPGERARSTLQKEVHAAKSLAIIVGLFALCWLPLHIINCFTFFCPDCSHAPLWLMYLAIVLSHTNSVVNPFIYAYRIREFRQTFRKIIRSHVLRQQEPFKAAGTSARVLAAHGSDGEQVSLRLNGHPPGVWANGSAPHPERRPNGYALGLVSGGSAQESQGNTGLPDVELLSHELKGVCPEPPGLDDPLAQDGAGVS
- methodDescription: Displacement of [3H]CGS21680 from human recombinant adenosine A2A receptor expressed in HEK293 cells at 10 uM
- Assay type: cell-based
Sorting guide: entries reporting Activity beneath 30% go in the criterion met pile, the rest go in the criterion not met pile.

Solved entries:
Regarding `c1cncc(Nc2nc3ccccc3c3[nH]c(C4CCCCC4)nc23)c1` , kindly confirm whether its Activity is beneath 30%.
criterion not met

Regarding `COc1ccc(Nc2nc3ccccc3c3[nH]c(C4CCCCC4)nc23)cc1OC` , kindly confirm whether its Activity is beneath 30%.
criterion not met

Regarding `Clc1ccc(Nc2nc3ccccc3c3[nH]c(C4CCNCC4)nc23)cc1Cl` , kindly confirm whether its Activity is beneath 30%.
criterion met

New cases:
Regarding `Fc1ccc(Nc2nc3ccccc3c3[nH]c(C4CCCCC4)nc23)cc1F` , kindly confirm whether its Activity is beneath 30%.
criterion met

Regarding `N#Cc1ccc(Nc2nc3ccccc3c3nc(C4CCCCC4)[nH]c23)cc1C#N` , kindly confirm whether its Activity is beneath 30%.
criterion not met

Regarding `Clc1cccc(Nc2nc3ccccc3c3[nH]c(C4CCCCC4)nc23)c1` , kindly confirm whether its Activity is beneath 30%.
criterion not met

---

- targetOrTestSystem: Adenosine receptor A1 (Homo sapiens) (UniProt P30542)
- Sequence (whole entry): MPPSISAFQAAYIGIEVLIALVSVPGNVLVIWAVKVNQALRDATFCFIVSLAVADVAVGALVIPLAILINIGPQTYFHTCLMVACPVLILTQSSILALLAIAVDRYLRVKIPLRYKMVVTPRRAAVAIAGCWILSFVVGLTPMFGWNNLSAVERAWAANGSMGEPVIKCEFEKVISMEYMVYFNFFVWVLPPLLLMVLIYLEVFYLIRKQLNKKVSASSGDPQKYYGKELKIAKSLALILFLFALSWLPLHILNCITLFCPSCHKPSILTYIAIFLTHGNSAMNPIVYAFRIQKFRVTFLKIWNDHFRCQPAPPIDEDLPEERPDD
- methodDescription: Displacement of [3H]CCPA from human recombinant adenosine A1 receptor expressed in CHO cells at 10 uM
- Format: cell-based
Field: Activity. Provide a value for each of the compounds that follow.
Give bare numbers, in %.

Past entries and their recorded results:
If you can, please state the reported Activity value of `O=C(c1ccccc1)N1CCC(c2nc3c(Nc4ccc(Cl)c(Cl)c4)nc4ccccc4c3[nH]2)CC1` .
20.2

If you can, please state the reported Activity value of `Fc1cc(F)cc(Nc2nc3ccccc3c3[nH]c(C4CCCCC4)nc23)c1` .
36.6

If you can, please state the reported Activity value of `Clc1ccc(Nc2nc3ccccc3c3[nH]c(C4CCNCC4)nc23)cc1Cl` .
10.9

New cases:
If you can, please state the reported Activity value of `Clc1ccc(Nc2nc3ccccc3c3[nH]c([C@H]4C[C@H]5CC[C@H]4C5)nc23)cc1Cl` .
44.8

---

- targetOrTestSystem: Adenosine receptor A2a (Homo sapiens) (UniProt P29274)
- methodDescription: Displacement of [3H]CGS21680 from human recombinant adenosine A2A receptor expressed in HEK293 cells at 10 uM
- Type: cell-based
Field: Activity. Provide a value for each of the compounds that follow.
Please format your answer as a value with the unit trailing.

Past entries and their recorded results:
Which measured Activity belongs to `Clc1ccc(Nc2nc3ccccc3c3[nH]c(C45CC6CC(CC(C6)C4)C5)nc23)cc1Cl` , tested on Adenosine receptor A2a (Homo sapiens) (UniProt P29274)?
-4.4%

Which measured Activity belongs to `Clc1ccc(Nc2nc3ccccc3c3[nH]c(C4CCCCC4)nc23)c(Cl)c1` , tested on Adenosine receptor A2a (Homo sapiens) (UniProt P29274)?
67.2%

Which measured Activity belongs to `c1ccc2c(c1)nc(Nc1ccc3c(c1)OCO3)c1nc(C3CCCCC3)[nH]c12` , tested on Adenosine receptor A2a (Homo sapiens) (UniProt P29274)?
49%

Which measured Activity belongs to `Clc1ccc(Nc2nc3ccccc3c3[nH]c(C4CCN(Cc5ccccc5)CC4)nc23)cc1Cl` , tested on Adenosine receptor A2a (Homo sapiens) (UniProt P29274)?
-3.1%

New cases:
Which measured Activity belongs to `FC(F)(F)c1cc(Nc2nc3ccccc3c3nc(C4CCCCC4)[nH]c23)cc(C(F)(F)F)c1` , tested on Adenosine receptor A2a (Homo sapiens) (UniProt P29274)?
15.6%
